Tested on: HEK-293T
test.description: Incucyte cell viability with HEK293T; further: unitless GR value; below 1 slowed growth and below 0 cell loss
Format: toxicity, cell-based
test.context: human, 0 h, 10 µM, compound concentration 10 uM, replicate number 2
Below, each entry is listed alongside its reported Growth Rate.

[
  {
    "molecule": "O=C1NCCSc2c1sc1ccc(O)cc21",
    "Growth Rate": -0.36
  },
  {
    "molecule": "c1cnc2cc3c(cc2n1)[C@@H]1CNC[C@H]3C1",
    "Growth Rate": 0.72
  },
  {
    "molecule": "O=C1CCC(N2Cc3cc(CNC(=O)C(F)(F)c4ccc(Cl)cc4)ccc3C2=O)C(=O)N1 (centres undefined)",
    "Growth Rate": 0.81
  },
  {
    "molecule": "C[C@H](CCC(=O)O)[C@H]1CC[C@H]2[C@@H]3[C@H](O)C[C@@H]4C[C@H](O)CC[C@]4(C)[C@H]3C[C@H](O)[C@]12C",
    "Growth Rate": 0.01
  },
  {
    "molecule": "CN(C(=O)CCOCCOCCOCCOCCNc1cccc2c1C(=O)N(C1CCC(=O)NC1=O)C2=O)[C@H]1CC[C@@]2(C)[C@@H](CC[C@@H]3[C@@H]2CC[C@]2(C)[C@@H](c4ccc5ccncc5c4)CC[C@@H]32)C1 (some centres undefined)",
    "Growth Rate": -0.85
  },
  {
    "molecule": "CCNC(=O)c1ccc2c(c1)NC(=O)/C2=C(\\Nc1ccc(CN(C)C)cc1)c1ccccc1",
    "Growth Rate": -1
  },
  {
    "molecule": "Nc1ncnc2c1ccn2[C@@H]1O[C@H]([C@@H](O)c2ccccc2)[C@@H](O)[C@H]1O",
    "Growth Rate": -0.97
  },
  {
    "molecule": "COc1cc2ncnc(Nc3ccc(Oc4ccccc4)cc3C)c2cc1OC.Cl",
    "Growth Rate": -0.45
  },
  {
    "molecule": "Fc1ccc(-c2c3cccc(C(F)(F)F)c3nn2Cc2ccc(F)cc2Cl)cc1",
    "Growth Rate": -0.86
  }
]

----------
Tested on: Fibroblast
test.description: Incucyte cell viability with human fibroblast; further: unitless GR value; below 1 slowed growth and below 0 cell loss
Type: toxicity, cell-based
test.context: 0 h, 10 µM, compound concentration 10 uM, replicate number 2
measure.name: Growth Rate

[
  {
    "compound": "COP(=O)(CCC(N)C(=O)O)Oc1cccc(CC(=O)O)c1 (stereo not given)",
    "measure.name": "Growth Rate",
    "endpoint.value": -0.57
  },
  {
    "compound": "Cc1cc([N+](=O)[O-])c(NS(=O)(=O)c2cccc(C(=O)O)c2)cc1-c1cccnc1",
    "measure.name": "Growth Rate",
    "endpoint.value": 0.25
  },
  {
    "compound": "Nc1ncnc2[nH]c(-c3ccccc3)nc12",
    "measure.name": "Growth Rate",
    "endpoint.value": 0.44
  },
  {
    "compound": "CC[C@@]1(c2ccccc2)NC(=O)N(Cc2ccccc2)C1=O",
    "measure.name": "Growth Rate",
    "endpoint.value": 0.5
  },
  {
    "compound": "O=C1NC(c2cccc([N+](=O)[O-])c2)=CCN1c1ccccc1O",
    "measure.name": "Growth Rate",
    "endpoint.value": -0.28
  }
]

----------
Below, each entry is listed alongside its reported Growth Rate.
Test system: Fibroblast
test.description: Incucyte cell viability with human fibroblast; further: unitless GR value; below 1 slowed growth and below 0 cell loss
Assay type: toxicity, cell-based
test.context: 12 h, 10 µM, compound concentration 10 uM, replicate number 1

[
  {
    "compound": "Cc1ccc(NC(=O)c2ccc3c(c2)OCCO3)cc1NC(=O)c1ccc2nc(OCCN3CCCC3)ccc2c1",
    "tested.target": "Fibroblast",
    "Growth Rate": -0.3
  },
  {
    "compound": "O=C(N[C@H](Cc1ccccc1)C(=O)O)c1cccc(OCc2cccnc2)c1.O=CO",
    "tested.target": "Fibroblast",
    "Growth Rate": 0.47
  },
  {
    "compound": "CCCCCNC(=O)N1CCC(CN(Cc2ccc(Cl)cc2)Cc2ccc([N+](=O)[O-])s2)C1 (centres undefined)",
    "tested.target": "Fibroblast",
    "Growth Rate": 0.48
  },
  {
    "compound": "CC1(C)C(=O)N([C@H]2CCc3c(O)cccc32)c2nc(Nc3cccc(CN4CCCC4)c3)ncc21",
    "tested.target": "Fibroblast",
    "Growth Rate": -0.4
  }
]

----------
System: U2OS
test.description: Incucyte cell viability with U2OS; further: unitless GR value; below 1 slowed growth and below 0 cell loss
Type: toxicity, cell-based
test.context: human, 24 h, 10 µM, compound concentration 10 uM, replicate number 1
Below, each entry is listed alongside its reported Growth Rate.

[
  {
    "molecule": "Cc1cccc(-c2nn3c(c2-c2ccnc4ccc(C(N)=O)cc24)CCC3)n1 [GALUNISERTIB]",
    "tested.target": "U2OS",
    "Growth Rate": 0.93
  },
  {
    "molecule": "CCN1CCN(Cc2ccc(NC(=O)Nc3ccc(Oc4cc(NC)ncn4)cc3)cc2C(F)(F)F)CC1 [AST-487]",
    "tested.target": "U2OS",
    "Growth Rate": 0.19
  },
  {
    "molecule": "CC(=O)Nc1nc2c(Oc3cc(-c4ccc(C(F)(F)F)cc4)ncn3)cccc2s1 [AMG-517]",
    "tested.target": "U2OS",
    "Growth Rate": 0.86
  },
  {
    "molecule": "Cc1ccc2c(N)c(C(=O)NC3CCc4cc(N5CC6CCC(C5)N6)ccc4C3)sc2n1.O=CO (stereo not drawn)",
    "tested.target": "U2OS",
    "Growth Rate": 0.24
  },
  {
    "molecule": "COc1ccc(-n2c(C)c([N+](=O)[O-])c3ccc(O)cc32)cc1",
    "tested.target": "U2OS",
    "Growth Rate": 0.91
  },
  {
    "molecule": "CC1(C)Cc2nc(C3CCCC3)c([C@@H](F)c3ccc(C(F)(F)F)cc3)c(C3CCCCC3)c2[C@@H](O)C1",
    "tested.target": "U2OS",
    "Growth Rate": 0.87
  },
  {
    "molecule": "CCn1c(CNC(=O)c2ncc(C)nc2N)[n+](CC)c2ccc(C(=O)N(C)CCN(C)C)cc21.Cl.Cl.[Cl-]",
    "tested.target": "U2OS",
    "Growth Rate": 0.97
  },
  {
    "molecule": "CCN1CCN(Cc2ccc(NC(=O)c3ccc(C)c(NC(=O)c4cncc(-c5cccs5)c4)c3)cc2C(F)(F)F)CC1",
    "tested.target": "U2OS",
    "Growth Rate": -0.6
  }
]

----------
Test system: HEK-293T
test.description: Incucyte cell viability with HEK293T; further: unitless GR value; below 1 slowed growth and below 0 cell loss
Type: toxicity, cell-based
test.context: human, 18 h, 10 µM, compound concentration 10 uM, replicate number 1
Below, each entry is listed alongside its reported Growth Rate.

[
  {
    "compound": "Cc1c[nH]c(-c2cnc(NCCNc3ccc(C#N)cn3)nc2-c2ccc(Cl)cc2Cl)n1 [LADUVIGLUSIB]",
    "Growth Rate": 0.58
  },
  {
    "compound": "O=C(Nc1ccccc1C(=O)O)c1cc(S(=O)(=O)c2ccccc2)ccc1Cl",
    "Growth Rate": 0.3
  },
  {
    "compound": "CCN1C(=O)c2cc(C)ccc2N(C)c2ncccc21",
    "Growth Rate": 0.42
  },
  {
    "compound": "N#Cc1ccc(COc2ccc(Br)cc2CNCCO)cn1.O=CO",
    "Growth Rate": 1
  },
  {
    "compound": "CC(C)Oc1ccc(F)c(-c2cnc(N)c(C(=O)Nc3cnccc3N3CCC[C@@H](C(=O)O)C3)n2)c1",
    "Growth Rate": -0.11
  }
]

----------
Below, each entry is listed alongside its reported Growth Rate.
System: HEK-293T
test.description: Incucyte cell viability with HEK293T; further: unitless GR value; below 1 slowed growth and below 0 cell loss
Assay type: toxicity, cell-based
test.context: human, 18 h, 10 µM, compound concentration 10 uM, replicate number 1

[
  {
    "molecule": "N[C@@H]1CCCC[C@H]1Oc1ccc2ncc(-c3cc4ccccc4o3)n2n1",
    "Growth Rate": -0.66
  },
  {
    "molecule": "CC(C)Oc1ccc(-c2cnc3c(-c4ccnc5ccccc45)cnn3c2)cc1",
    "Growth Rate": -0.07
  },
  {
    "molecule": "C[C@@H]1CN(CC(=O)N2CC(C)(C)c3nc(CO)c(Cc4ccc(F)cc4)cc32)[C@@H](CN2CCOC[C@H]2C)CN1",
    "Growth Rate": 0.97
  },
  {
    "molecule": "COCCOCn1c(S(C)(=O)=O)nc2c1c(=O)n(C)c(=O)n2C",
    "Growth Rate": 0.74
  },
  {
    "molecule": "O=C1CCCN1CCNc1nc(Nc2ccc(Cl)c(Cl)c2)ncc1C(F)(F)F",
    "Growth Rate": 0.89
  },
  {
    "molecule": "CN(C)C(=O)Cn1cc(-c2nc([C@@](C)(c3ccc(-c4cnc(N)nc4)cc3)C3CC3)no2)cn1",
    "Growth Rate": 0.93
  },
  {
    "molecule": "COc1ncc(-c2cc(-c3ncc(CN4C[C@@H](C)O[C@@H](C)C4)o3)c3cn[nH]c3c2)cc1NS(C)(=O)=O",
    "Growth Rate": -0.01
  },
  {
    "molecule": "CCC(=O)O[C@@H](OP(=O)(CCCCc1ccccc1)CC(=O)N1C[C@H](C2CCCCC2)C[C@H]1C(=O)[O-])C(C)C.[Na+] (stereo partly drawn)",
    "Growth Rate": 0.77
  }
]
